Measurement Protocol: NCI Yeast Anticancer Drug Screen. Data for the cln2 rad14 strain (AID 165);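 further: 0% = growth equal to vehicle treated cultures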
Assay Setup: S. cerevisiae cln2 rad14 strain, at 50.0 µM (retest, dose inferred, filed as 5.0), stronger effect = higher value
About 79,000 compounds went through this panel and 15% of them were active in at least one assay; those are over-represented in the sample as a whole.
Could you label it y if measured growth inhibition is 80% or higher, and n otherwise?

Worked cases, answers included:
Clc1c2ccccc2cc2cccnc12    n
Cc1cccc(C)c1N=Nc1c(C)nc(N)nc1-c1ccccc1    y
CSC(=S)NN=C1CCCC1    y
CCCCCN(CCCCC)C(C)C(=O)c1ccc2cc(Br)c3ccccc3c2c1 (centres undefined)    n
O=C(/C=C/C(=O)N1CCCC1)N1CCCC1    n
[N-]=[N+]=Nc1ccnc2ccc(C3CCCCC3)cc12    y

stdin: Entry O=S(=O)(OI(OI(OS(=O)(=O)C(F)(F)F)c1ccccc1)c1ccccc1)C(F)(F)F : is its growth inhibition no less than 80%?
stdout: y

stdin: Entry COc1ccc(OC)c(C[P+](c2ccccc2)(c2ccccc2)c2ccccc2)c1 : is its growth inhibition no less than 80%?
stdout: y

stdin: Entry CC(C)=NOCCOC(=O)C(c1ccccc1)c1ccccc1 : is its growth inhibition no less than 80%?
stdout: n

stdin: Entry CN(C)CC(C)(C)C(/C=C/c1ccccc1)=N\Nc1ccccc1 : is its growth inhibition no less than 80%?
stdout: n

stdin: Entry CCCCCC(/C=N/NC(N)=S)C(O)(C(F)(F)F)C(F)(F)F (centres undefined) : is its growth inhibition no less than 80%?
stdout: n

stdin: Entry CC1(C)N=C(N)N=C(N)N1c1cccc(OCc2cccc(N)c2)c1 : is its growth inhibition no less than 80%?
stdout: n

----------
// growth inhibition lookup, one value per entry
Measurement Protocol: NCI Yeast Anticancer Drug Screen. Data for the cln2 rad14 strain (AID 165);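 further: 0% = growth equal to vehicle treated cultures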
Assay Setup: S. cerevisiae cln2 rad14 strain, at 50.0 µM, stronger effect = higher value
About 79,000 compounds went through this panel and 15% of them were active in at least one assay; those are over-represented in the sample as a whole. Activity calls are given as the source filed them. No stated cut-off is given here; in the data, active means growth inhibition above about 70%; inactive means the rest.

Examples from the recorded data:
c1ccc2c(c1)-c1cccc3cncc-2c13    90.9% (active)
CCc1cc2nc3c(=O)[nH]c(=O)nc-3n(CCN(CCO)CCO)c2cc1CC    37% (inactive)
[O-][n+]1c2c(cc3ccccc31)Cc1ccccc1-2    20.4% (inactive)
CS(=O)(=O)c1nnnn1-c1ccccc1    97.3% (active)
CC(O)(c1ccccc1)c1ccccc1S(=O)(=O)Nc1ccccc1 (configuration not stated)    98.5% (active)

Summary for this molecule, Cc1nn(C(=S)S)c(C)c1N=Nc1cccc(F)c1 : growth inhibition is 24.4% (inactive)

Summary for this molecule, COc1ccc(C2(O)c3ccccc3C(=O)C2c2ccccn2)cc1 (configuration not stated) : growth inhibition is 98.8% (active)

Summary for this molecule, Oc1ccc(SCc2cc(O)ccc2O)cc1 : growth inhibition is 66% (inactive)

Summary for this molecule, NCC(O)CSc1ccc(Cl)c(Cl)c1 (configuration not stated) : growth inhibition is 74.8% (active)

Summary for this molecule, CNC(=O)c1cc(NC(=O)c2ccc(C(=O)Nc3cc(C(=O)NC)cc(C4=NCCN4)c3)cc2)cc(C2=NCCN2)c1 : growth inhibition is 92.8% (active)

Summary for this molecule, Nc1ccc(C(=O)N/C(=C\c2ccc3c(c2)OCO3)c2nc3ccccc3s2)cc1 : growth inhibition is 96.3% (active)

Summary for this molecule, OC(CCl)c1ccc2ccc3c(c2c1)Nc1ccccc1S3 (configuration not stated) : growth inhibition is 78.8% (active)

Attribution: PubChem BioAssay (NCI)
